Cited source: PubChem BioAssay (NCI)

# System: UACC-62 melanoma
# protocol.text: NCI tumour cell line growth inhibition, 48 h; in the data active = GI50 below about 0.43 µM; inactive = the rest
Hello, when you answer, please use one of the following outcomes: active, inactive

                                   compound  class_name
0  C/C=C1\NC(=O)[C@H]2CSSCCC=C[C@H](CC(=O)N[C@H](C(C)C)C(=O)N2)OC(=O)[C@H](C(C)C)NC1=O      active
1        NC(=O)c1cc2c3ccccc3ccn2c1-c1ccccc1      active

Task: Could you check what this test reported for `Cc1ccc(-c2csc(NC(=O)CN3CCN(c4cc5c(cc4F)c(=O)c(C(=O)O)cn5C4CC4)CC3)n2)cc1` ?
Output: inactive

Task: Could you check what this test reported for O=C(O)C1CCCCC1C(=O)O.[NH-]C1CCC1.[NH2-].[Pt+2] (stereo unspecified) ?
Output: inactive

Task: Could you check what this test reported for `CC[C@H](Nc1nc(C)nc(N)c1C#N)c1nc2cccc(NCc3ccc(C(=O)NO)cc3)c2c(=O)n1-c1ccccc1` ?
Output: inactive

Task: Could you check what this test reported for `COc1ccc2c(c1)/C(=C\c1c(Cl)[nH]c3ccc(OC)cc13)C(=O)N2` ?
Output: inactive

Task: Could you check what this test reported for `O=C1c2cc(Cl)ccc2-c2c1c1ccc([N+](=O)[O-])cc1c(=O)n2CCCBr` ?
Output: inactive

###

# Tested on: SN12C renal
# protocol.text: NCI tumour cell line growth inhibition, 48 h
measured.parameter: TGI

In [3]: df
Out[3]:
                           smiles_structure  observed_result
0  COc1ccc2[nH]c(O)c(C(=Nc3ccc(N(C)C(=O)CN4CCN(C)CC4)cc3)c3ccccc3)c2c1          10.4 µM
1  O=c1nc2c(c(-c3ccc(Br)cc3)[nH]1)COC/C2=C\c1ccc(Br)cc1          > 50 µM

Task: GET /values?readout=TGI&system=SN12C renal&item= `C/C=C/C=C/C=C/C=C/C(=O)O`
Output: > 100 µM

Task: GET /values?readout=TGI&system=SN12C renal&item= `COc1ccc(/C=C\c2cc(OC)c(O[Si](C)(C)C(C)(C)C)c(OC)c2)cc1`
Output: > 100 µM

Task: GET /values?readout=TGI&system=SN12C renal&item= `C=C1N(C=O)C(C)(C)N(O)C1(C)C`
Output: > 100 µM

Task: GET /values?readout=TGI&system=SN12C renal&item= `O=C1NC(=S)S/C1=C(/C=C(\CC(=O)c1ccccc1)c1ccc(Cl)cc1)c1ccccc1`
Output: 56.3 µM

###

# System: SK-MEL-5 melanoma
# protocol.text: NCI tumour cell line growth inhibition, 48 h
measured.parameter: TGI (µM)
Numbers only; they are read as µM.

>>> print(df.to_string())
                                   molecule  observed_result
0  CC1=C(C(=O)Nc2cccc(Cl)c2)C(c2ccccc2F)C(C(=O)Nc2cccc(Cl)c2)=C(C)N1             29.5

Could you now consider this next molecule?
Task: GET /values?readout=TGI&system=SK-MEL-5 melanoma&item= COc1ccc(N2C(=O)[C@H]3CC(C)c4c([nH]c5ccccc45)[C@H]3C2=O)cc1 (stereo not given in full)
Output: 36.6

###

# Test system: MDA-MB-435
measured.parameter: GI50

In [3]: df
Out[3]:
                                   compound  measured_target  observed_result
0  CC[PH+](CC)CC.O=COC1OC([S-])C(OC=O)C(OC=O)C1OC=O.[Au+] (stereo not given)       MDA-MB-435          1.43 µM
1  COC(=O)C1CCc2sc3ncnc(Nc4cn[nH]c4C(=O)Nc4ccc(CN5CCN(C)CC5)cc4)c3c21 (stereo not given)       MDA-MB-435          1.06 µM
2  OCCNc1ncnc2c1ncn2Cc1cccc(COc2cccc(OCc3cccc(Cn4cnc5c(NCCO)ncnc54)c3)c2)c1       MDA-MB-435          14.9 µM

Task: GET /values?readout=GI50&system=MDA-MB-435&item= `CCOc1cccc(/C=N/NC(=O)C(=O)Nc2cccc(C(F)(F)F)c2)c1O`
Output: 4.16 µM

Task: GET /values?readout=GI50&system=MDA-MB-435&item= `O=C1NC(=S)S/C1=C(/C=C(\CC(=O)c1ccccc1)c1ccc(Cl)cc1)c1ccccc1`
Output: 37.2 µM
